Test system: Mycobacterium tuberculosis
experimental details: Antibacterial activity against Mycobacterium tuberculosis H37Rv
Assay type: functional
For each of the compounds below, state its MIC.
// note: answer is a bare numeric in µg/mL

*Q* Fill blank: measured MIC of the compound CC[C@@H](CO)NCCN[C@@H](CC)CO is ____.
*A* 2

*Q* // next record Cc1ccc2c(c1)cc(C1C3=C(CC(C)(C)CC3=O)N(c3ccc(F)cc3)C3=C1C(=O)CC(C)(C)C3)c1nnnn12
*A* 50

*Q* // next record NNC(=O)c1ccncc1
*A* 0.2

====

Test system: Mycobacterium tuberculosis
experimental details: Antibacterial activity against Mycobacterium tuberculosis H37Rv by MABA
Assay type: functional
measure name: MIC (µg/mL)
// note: answer is a bare numeric in µg/mL

*Q* Fill blank: measured MIC of the compound COc1cc(-c2nnnn2S(=O)(=O)c2ccccc2)ccc1OCC(O)(Cn1cncn1)c1ccc(F)cc1F (stereo not drawn) is ____.
*A* 3.12

*Q* // next record COc1cc(-c2nnnn2S(=O)(=O)c2ccc(Br)s2)ccc1OCC(O)(Cn1cncn1)c1ccc(Cl)cc1Cl (stereo not drawn)
*A* 1.56

*Q* // next record COc1cc(-c2nnnn2S(=O)(=O)c2ccc([N+](=O)[O-])cc2)ccc1OCC(O)(Cn1cncn1)c1ccc(F)cc1F (stereo not drawn)
*A* 12.5

*Q* // next record COc1cc(-c2nnnn2S(=O)(=O)c2ccc(Br)s2)ccc1OCC(O)(Cn1cncn1)c1ccc(F)cc1F (stereo not drawn)
*A* 1.56

*Q* // next record CC[C@@H](CO)NCCN[C@@H](CC)CO [ETHAMBUTOL]
*A* 1.56

====

System: Mycobacterium tuberculosis
experimental details: Antibacterial activity against Mycobacterium tuberculosis H37Rv
Assay type: functional
measure name: MIC
Returns: string containing the numeric result and its unit.

*Q* Fill blank: measured MIC of the compound c1cnc(-c2nn3nnnc3o2)cn1 is ____.
*A* 50 µg/mL

*Q* // next record CN[C@@H]1[C@H](O[C@H]2[C@H](O[C@H]3[C@H](O)[C@@H](O)[C@H](N=C(N)N)[C@@H](O)[C@@H]3N=C(N)N)O[C@@H](C)[C@]2(O)C=O)O[C@@H](CO)[C@H](O)[C@H]1O
*A* 4 µg/mL

*Q* // next record Cc1ccc(-n2c(-c3cc4cc(Cl)ccc4n4nnnc34)nc(-c3ccccc3)c2-c2ccccc2)cc1
*A* 25 µg/mL

====

For each of the compounds below, state its MIC.
Tested on: Mycobacterium kansasii
experimental details: Antibacterial activity against Mycobacterium kansasii isolate 6509/96
Type: functional

*Q* Fill blank: measured MIC of the compound Sc1nnnn1-c1ccccc1 is ____.
*A* 250 to 500 µg/mL

*Q* // next record c1ccc(CSc2nnnn2-c2ccccc2)cc1
*A* 8 to 250 µg/mL

*Q* // next record C[C@]12CC[C@@H]3c4ccc(OCCCCCCCSc5nnnn5-c5ccc(Cl)cc5)cc4CC[C@H]3[C@@H]1CCC2=O
*A* ≥ 500 µg/mL

====

For each of the compounds below, state its MIC.
Tested on: Mycobacterium kansasii
experimental details: Antibacterial activity against Mycobacterium kansasii isolate 6509/96
Assay type: functional

*Q* Fill blank: measured MIC of the compound Cc1ccc(-n2nnnc2S)cc1 is ____.
*A* 250 to 500 mg/L

*Q* // next record Cc1ccc(-n2nnnc2SCc2ccccc2)cc1
*A* 8 to 250 mg/L

*Q* // next record Clc1ccc(-n2nnnc2SCc2ccccc2)cc1Cl
*A* 8 to 62.5 mg/L

*Q* // next record Sc1nnnn1-c1ccc(Cl)c(Cl)c1
*A* 250 to 500 mg/L

*Q* // next record Clc1ccc(-n2nnnc2SCc2ccccc2)cc1
*A* 8 to 250 mg/L

*Q* // next record Sc1nnnn1-c1ccc(Cl)cc1
*A* 250 to 500 mg/L

*Q* // next record NNC(=O)c1ccncc1
*A* 4 mg/L

*Q* // next record Cc1ccc(-n2nnnc2SCCCCCCCOc2ccc3c(c2)CC[C@@H]2[C@@H]3CC[C@]3(C)C(=O)CC[C@@H]23)cc1
*A* ≥ 500 mg/L

*Q* // next record C[C@]12CC[C@@H]3c4ccc(OCCCCCCCSc5nnnn5-c5ccccc5)cc4CC[C@H]3[C@@H]1CCC2=O
*A* ≥ 500 mg/L

*Q* // next record C[C@]12CC[C@@H]3c4ccc(OCCCCCCCSc5nnnn5-c5ccc(Cl)c(Cl)c5)cc4CC[C@H]3[C@@H]1CCC2=O
*A* ≥ 500 mg/L

====

Test system: Mycobacterium tuberculosis
experimental details: Antibacterial activity against Mycobacterium tuberculosis H37Rv by MABA
Format: functional
measure name: MIC (mg/L)
// note: answer is a bare numeric in mg/L

*Q* Fill blank: measured MIC of the compound COc1cc(-c2nnnn2S(=O)(=O)c2ccccc2)ccc1OCC(O)(Cn1cncn1)c1ccc(Cl)cc1Cl (centres undefined) is ____.
*A* 25

*Q* // next record COc1cc(-c2nnnn2S(=O)(=O)c2ccc(C(C)(C)C)cc2)ccc1OCC(O)(Cn1cncn1)c1ccc(F)cc1F (centres undefined)
*A* 1.56

*Q* // next record COc1cc(-c2nnnn2S(=O)(=O)c2ccc(Br)cc2)ccc1OCC(O)(Cn1cncn1)c1ccc(F)cc1F (centres undefined)
*A* 3.12

*Q* // next record COc1ccc(S(=O)(=O)n2nnnc2-c2ccc(OCC(O)(Cn3cncn3)c3ccc(F)cc3F)c(OC)c2)cc1 (centres undefined)
*A* 1.56

*Q* // next record COc1cc(-c2nnnn2S(=O)(=O)c2ccc(F)cc2)ccc1OCC(O)(Cn1cncn1)c1ccc(F)cc1F (centres undefined)
*A* 6.25

====

System: Plasmodium falciparum
experimental details: Antimalarial activity against ring-stage multidrug-resistant Plasmodium falciparum Dd2 preincubated for 6 hrs followed by compound wash and measured after 66 hrs by Giemsa-staining based light microscopic analysis
Type: functional, organism-based
For each of the molecules below, state its log10(IC50).
Form field - Quantity: IC50; Unit: nM; Scale: log10

*Q* Fill blank: measured log10(IC50) of the molecule Cn1nnc(NCC2CCC3(CC2)OOC2(O3)C3CC4CC(C3)CC2C4)n1 (configuration not stated) is ____.
*A* 0.32

*Q* // next record C1C2CC3CC1CC(C2)C31OOC2(CCC(Nc3nnn[nH]3)CC2)O1 (configuration not stated)
*A* 0.40

*Q* // next record C1C2CC3CC1CC(C2)C31OOC2(CCC(Nc3nnn[nH]3)CC2)OO1 (configuration not stated)
*A* 1.64

*Q* // next record C[C@@H]1CC[C@H]2[C@@H](C)C(=O)O[C@@H]3O[C@@]4(C)CC[C@@H]1[C@]32OO4 [ARTEMISININ]
*A* 0.40

*Q* // next record C[C@H]1[C@@H](O)O[C@@H]2O[C@@]3(C)CC[C@H]4[C@H](C)CC[C@@H]1[C@@]24OO3 [ARTENIMOL]
*A* 0.62

*Q* // next record C[C@H]1[C@H](OC(=O)CCC(=O)O)O[C@@H]2O[C@@]3(C)CC[C@H]4[C@H](C)CC[C@@H]1[C@@]24OO3 [ARTESUNATE]
*A* 0.66

====

Test system: Mycobacterium tuberculosis
experimental details: Antibacterial activity against Mycobacterium tuberculosis H37Rv by MABA
Format: functional
measure name: MIC

*Q* Fill blank: measured MIC of the molecule COc1cc(-c2nnnn2S(=O)(=O)c2ccc(C)cc2)ccc1OCC(O)(Cn1cncn1)c1ccc(Cl)cc1Cl (stereo not drawn) is ____.
*A* 1.56 to 12.5 µg/mL

*Q* // next record COc1cc(-c2nnnn2S(=O)(=O)c2ccc([N+](=O)[O-])cc2)ccc1OCC(O)(Cn1cncn1)c1ccc(Cl)cc1Cl (stereo not drawn)
*A* 1.56 to 12.5 µg/mL

*Q* // next record COc1cc(-c2nnnn2S(=O)(=O)c2ccc(F)cc2)ccc1OCC(O)(Cn1cncn1)c1ccc(Cl)cc1Cl (stereo not drawn)
*A* 1.56 to 12.5 µg/mL
